From: patent US20260258124A1

Target: T1, human recombinant CD117 (c-Kit) from Sino Biological (Catalog No. 11996-H08H) (human, UniProt P10721 26-524)
T1 construct: also called soluble antigen
T1 sequence (P10721 26-524 limits assumed): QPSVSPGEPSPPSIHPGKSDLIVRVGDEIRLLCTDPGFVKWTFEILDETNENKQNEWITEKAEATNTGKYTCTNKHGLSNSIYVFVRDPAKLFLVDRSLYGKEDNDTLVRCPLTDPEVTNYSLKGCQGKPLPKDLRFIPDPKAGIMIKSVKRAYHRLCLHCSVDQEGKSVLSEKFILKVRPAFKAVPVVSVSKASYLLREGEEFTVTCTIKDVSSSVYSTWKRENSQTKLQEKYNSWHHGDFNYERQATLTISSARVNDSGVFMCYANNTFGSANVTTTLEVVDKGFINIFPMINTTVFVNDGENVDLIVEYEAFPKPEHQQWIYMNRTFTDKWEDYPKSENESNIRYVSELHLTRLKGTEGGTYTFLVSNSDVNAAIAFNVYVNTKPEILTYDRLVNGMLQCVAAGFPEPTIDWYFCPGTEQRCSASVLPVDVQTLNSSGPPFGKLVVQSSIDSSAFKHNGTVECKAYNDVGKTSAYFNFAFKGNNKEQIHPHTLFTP
Test: BLI Octet, IgG on anti-human Fc sensor, soluble CD117, 1:1 fit
endpoint: Kd (nM)
The figure you give is taken to be in nM; do not add the unit.

These recorded examples may help you get a feel for the data.
Query :: What does the data say about its Kd? Entry: HC2 LC5 (antibody, V domains shown, IgG; also called VH2/VL5) VH: QVQLVESGAEVKKPGASVKLSCKASGYTFTSYNMHWVRQAPGQRLEWMGVIYSGNGDTSYNQKFKGRVTITVDKSASTAYMELSSLRSEDTAVYYCARERDTRFGNWGQGTLVTVSA VL: DIQMTQSPSSLSASVGDRVTITCRASESVDIYGNAFMHWYQQKPGKAPKLLIYLASNLESGVPSRFSGSGSGTDFTLTISSLQPEDFATYYCQQANEEPYTFGGGTKLEIK
Result :: 33.8

Query :: Form field: reported Kd of HC2 LC2 (antibody, V domains shown, IgG; also called VH2/VL2) VH: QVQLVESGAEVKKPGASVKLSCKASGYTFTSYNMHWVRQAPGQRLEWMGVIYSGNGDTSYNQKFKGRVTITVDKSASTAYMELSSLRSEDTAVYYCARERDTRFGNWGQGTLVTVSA VL: DIVMTQSPSTLSASVGDRVTITCRASESVDIYGNSFMHWYQQKPGKAPKLLIYLASNLESGVPSRFSGSGSGTEFTLTISSLQPDDFATYYCQQNNEDPYTFGQGTKLEIK
Result :: 10.8

Shift focus to the following entry.
Query :: Reported Kd, binder HC3 LC5 (antibody, V domains shown, IgG; also called VH3/VL5) VH: QVQLVQSGAEVRKPGASVKLSCKASGYTFTSYNMHWVRQAPGQGLEWMGVIYSGNGDTSYNQKFKGRVTLTRDTSTSTVYMELSSLRSEDTAVYYCARERDTRFGNWGQGTLVTVSA VL: DIQMTQSPSSLSASVGDRVTITCRASESVDIYGNAFMHWYQQKPGKAPKLLIYLASNLESGVPSRFSGSGSGTDFTLTISSLQPEDFATYYCQQANEEPYTFGGGTKLEIK : ____
Result :: 26.2
